test: qHTS Screen of the MIPE 4.0 Collection Against Ewings Sarcoma (EW8) (AID 1259255); conditions: EW8 Ewing sarcoma viability, CellTiter-Glo, 48 h; series mostly up to 45.8 µM; further: nearly all actives have a fitted effect of over 35% in size; further: potency means the concentration at half of the fitted maximal effect
Records with an inconclusive call do not appear. Activity calls are given as the source filed them. The call rests on the fitted dose curve; in most records, active means well fitted inhibition curve with a large enough effect; inconclusive means small, poorly fitted or top-dose-only effect; inactive means no such curve, though single readings can be large or run the other way.
Assay Metric: Potency

>>> result("COc1cc2nccc(Oc3ccc(NC(=O)C4(C(=O)Nc5ccc(F)cc5)CC4)cc3)c2cc1OC")
"1050 nM (active)"
>>> result("Nc1ccn([C@@H]2O[C@H](CO)[C@H](O)C2(F)F)c(=O)n1")
"16.6 nM (active)"
>>> result("O=C(Nc1ncc(-c2cc(C(F)F)nn2-c2c(Cl)cccc2Cl)s1)C1CC1")
"469 nM (active)"
>>> result("Nc1cc(C(F)(F)F)c(-c2cc(N3CCOCC3)nc(N3CCOCC3)n2)cn1")
"590 nM (active)"
>>> result("Clc1ccc2ncc(-c3cccc(NC4CNC4)n3)n2c1")
"3320 nM (active)"
>>> result("Cc1ccc(C(=O)Nc2cccc(C(F)(F)F)c2)cc1-c1ccc2nc(NCCN3CCOCC3)ncc2c1")
"14800 nM (active)"
>>> result("Cn1cc(-c2[nH]c3cc(NC(=O)[C@H](N)C4CCCCC4)cc4c3c2C=NNC4=O)cn1")
"372 nM (active)"
>>> result("CCC(=C(c1ccccc1)c1ccc(OCCN(C)C)cc1)c1ccccc1")
"20900 nM (active)"
>>> result("CNC(=O)c1ccc(N2C(=S)N(c3cnc(C#N)c(C(F)(F)F)c3)C(=O)C23CCC3)cc1F")
"8330 nM (active)"
>>> result("CCCCc1nc2cc(C=CC(=O)NO)ccc2n1CCN(CC)CC")
"469 nM (active)"
>>> result("O=C(O)c1ccc2cc(-c3ccc(O)c(C45CC6CC(CC(C6)C4)C5)c3)ccc2c1")
"1660 nM (active)"
>>> result("CC(C)c1cnn2c(NCc3ccccc3)cc(N[C@@H](CO)[C@H](O)CO)nc12")
"372 nM (active)"
>>> result("Cc1ccc(C(N)=O)cc1Nc1nccc(-c2cn(C(C)C)c3cnccc23)n1")
"18700 nM (active)"
>>> result("COc1cc2ncn(-c3cc(OCc4ccccc4C(F)(F)F)c(C(N)=O)s3)c2cc1OC")
"1320 nM (active)"
>>> result("COc1cc(OC2CCN(C)CC2)ccc1Nc1ncc2c(n1)n(C1CCCC1)c(=O)n2C")
"7430 nM (active)"
>>> result("CCn1nnc2c(N3CCOCC3)nc(-c3ccc(NC(=O)Nc4ccc(C(=O)N5CCN(C)CC5)cc4)cc3)nc21")
"6.6 nM (active)"
>>> result("COC(=O)Nc1ccc(-c2nc(N3CCOCC3)c3cnn(C4CCN(Cc5cccnc5)CC4)c3n2)cc1")
"83.3 nM (active)"
>>> result("O=C(NCCCNc1nc(Nc2cccc(NC(=O)N3CCCC3)c2)ncc1I)c1cccs1")
"1870 nM (active)"
>>> result("N#CCNC(=O)c1ccc(-c2ccnc(Nc3ccc(N4CCOCC4)cc3)n2)cc1")
"13200 nM (active)"
>>> result("COc1cc2c(NC3CCN(C(C)C)CC3)nc(C3CCCCC3)nc2cc1OCCCN1CCCC1")
"5900 nM (active)"
>>> result("CC(C)(O)CCc1ccc(OCc2cc(-c3cccc(OC(F)F)c3)c3ncccc3c2)cc1")
"inactive"
>>> result("COc1ccc(CC2SC(=O)NC2=O)cc1C(=O)NCc1ccc(C(F)(F)F)cc1 (stereo not drawn)")
"inactive"
>>> result("COc1cc(-c2nn(C3CCC(N4CCN(C(C)=O)CC4)CC3)c3ncnc(N)c23)ccc1NC(=O)c1cc2ccccc2n1C (stereo not drawn)")
"6620 nM (active)"
>>> result("Cc1c(CN2CCN(S(C)(=O)=O)CC2)sc2c(N3CCOCC3)nc(-c3cnc(N)nc3)nc12")
"66.2 nM (active)"
>>> result("CN[C@H]1CCc2cc(OC)c(OC)c(OC)c2-c2ccc(OC)c(=O)cc21")
"1.9 nM (active)"
>>> result("COc1cc(Nc2ncc(F)c(Nc3ccc4c(n3)N(COP(=O)(O)O)C(=O)C(C)(C)O4)n2)cc(OC)c1OC")
"7430 nM (active)"
>>> result("Nc1nc(NCCNc2ncc(-n3ccnc3)c(-c3ccc(Cl)cc3Cl)n2)ccc1[N+](=O)[O-]")
"inactive"
>>> result("COc1ccc(C=Cc2cc(OC)c(OC)c(OC)c2)cc1O")
"inactive"
